# measurement-notes: Pharmacokinetics of oral BBR in mice (portal vein and liver)
# Assay type: in vivo, mice
# experimental-conditions: mouse, portal vein plasma, po, 200 mg/kg, portal vein; mice, oral BBR 200 mg/kg in 10% NADES dilution; read-out: AUC0–12 h
Where a name gives a salt, the structure may show the parent alone.
test-readout: AUC(0-t) (ng·h/mL)
Give the value, in units of ng·h/mL, as a plain number.

AUC(0-t) lookup needed for COc1ccc2cc3[n+](cc2c1OC)CCc1cc2c(cc1-3)OCO2 [BBR, Berberine hydrochloride] , thanks.
3590

====

# measurement-notes: Pharmacokinetics of oral BBR in mice (portal vein and liver)
# Format: in vivo, mice
# experimental-conditions: mouse, portal vein plasma, po, 200 mg/kg, portal vein; mice, oral BBR 200 mg/kg in malic acid solution 980 mg/kg
Counter-ions that a name gives are not always drawn.
test-readout: half-life

half-life lookup needed for COc1ccc2cc3[n+](cc2c1OC)CCc1cc2c(cc1-3)OCO2 [BBR, Berberine hydrochloride] , thanks.
1.4 h

====

# measurement-notes: Pharmacokinetics of oral BBR in mice (portal vein and liver)
# Format: in vivo, mice
# experimental-conditions: mouse, portal vein plasma, po, 200 mg/kg, portal vein; mice, oral BBR 200 mg/kg in malic acid solution 98 mg/kg
Where a name gives a salt, the structure may show the parent alone.
test-readout: Tmax (h)
Give the value, in units of h, as a plain number.

Tmax lookup needed for COc1ccc2cc3[n+](cc2c1OC)CCc1cc2c(cc1-3)OCO2 [BBR, Berberine hydrochloride] , thanks.
2

====

# measurement-notes: Pharmacokinetics of oral BBR in mice (portal vein and liver)
# Format: in vivo, mice
# experimental-conditions: mouse, portal vein plasma, po, 200 mg/kg, portal vein; mice, oral BBR 200 mg/kg in malic acid solution 98 mg/kg
# Experimental: The dosages of malic acid were, respectively, equal to the dosages of malic acid in the 1 and 10% water dilutions of the NADES. […] A non-compartmental analysis using WinNonlin® software (Pharsight, CA, United States) was performed to obtain the pharmacokinetic parameters of berberine in mice. It should be noted that the pharmacokinetic parameters were calculated based on the average drug concentration at each time point because the mice were not continuously sampled.
Structures can show the parent of a compound that is named as a salt.
test-readout: AUC(0-inf) (ng·h/mL)
Give the value, in units of ng·h/mL, as a plain number.

AUC(0-inf) lookup needed for COc1ccc2cc3[n+](cc2c1OC)CCc1cc2c(cc1-3)OCO2 [BBR, Berberine hydrochloride] , thanks.
2300

====

# measurement-notes: Pharmacokinetics of oral BBR in mice (portal vein and liver)
# Format: in vivo, mice
# experimental-conditions: mouse, portal vein plasma, po, 200 mg/kg, portal vein; mice, oral BBR 200 mg/kg in 1% NADES dilution
Structures can show the parent of a compound that is named as a salt.
test-readout: AUC(0-inf) (ng·h/mL)
Give the value, in units of ng·h/mL, as a plain number.

AUC(0-inf) lookup needed for COc1ccc2cc3[n+](cc2c1OC)CCc1cc2c(cc1-3)OCO2 [BBR, Berberine hydrochloride] , thanks.
2740

====

# measurement-notes: Pharmacokinetics of oral BBR in mice (portal vein and liver)
# Assay type: in vivo, mice
# experimental-conditions: mouse, portal vein plasma, po, 200 mg/kg, portal vein; mice, oral BBR 200 mg/kg in malic acid solution 980 mg/kg
Counter-ions that a name gives are not always drawn.
test-readout: AUC(0-inf) (ng·h/mL)
Give the value, in units of ng·h/mL, as a plain number.

AUC(0-inf) lookup needed for COc1ccc2cc3[n+](cc2c1OC)CCc1cc2c(cc1-3)OCO2 [BBR, Berberine hydrochloride] , thanks.
3070

====

# measurement-notes: Pharmacokinetics of oral BBR in mice (portal vein and liver)
# Assay type: in vivo, mice
# experimental-conditions: mouse, liver, po, 200 mg/kg, livers; mice, oral BBR 200 mg/kg in 1% NADES dilution
Counter-ions that a name gives are not always drawn.
test-readout: Tmax (h)
Give the value, in units of h, as a plain number.

Tmax lookup needed for COc1ccc2cc3[n+](cc2c1OC)CCc1cc2c(cc1-3)OCO2 [BBR, Berberine hydrochloride] , thanks.
2

====

# measurement-notes: Pharmacokinetics of oral BBR in mice (portal vein and liver)
# Type: in vivo, mice
# experimental-conditions: mouse, liver, po, 200 mg/kg, livers; mice, oral BBR 200 mg/kg in malic acid solution 98 mg/kg
Structures can show the parent of a compound that is named as a salt.
test-readout: MRT (h)
Give the value, in units of h, as a plain number.

MRT lookup needed for COc1ccc2cc3[n+](cc2c1OC)CCc1cc2c(cc1-3)OCO2 [BBR, Berberine hydrochloride] , thanks.
3

====

# measurement-notes: Pharmacokinetics of oral BBR in mice (portal vein and liver)
# Type: in vivo, mice
# experimental-conditions: mouse, liver, po, 200 mg/kg, livers; mice, oral BBR 200 mg/kg in malic acid solution 98 mg/kg
Where a name gives a salt, the structure may show the parent alone.
test-readout: Tmax
Report the figure along with its unit, number first.

Tmax lookup needed for COc1ccc2cc3[n+](cc2c1OC)CCc1cc2c(cc1-3)OCO2 [BBR, Berberine hydrochloride] , thanks.
2 h

====

# measurement-notes: Pharmacokinetics of oral BBR in mice (portal vein and liver)
# Assay type: in vivo, mice
# experimental-conditions: mouse, portal vein plasma, po, 200 mg/kg, portal vein; mice, oral BBR 200 mg/kg in 10% NADES dilution
Counter-ions that a name gives are not always drawn.
test-readout: half-life (h)
Give the value, in units of h, as a plain number.

half-life lookup needed for COc1ccc2cc3[n+](cc2c1OC)CCc1cc2c(cc1-3)OCO2 [BBR, Berberine hydrochloride] , thanks.
1.7

====

# measurement-notes: Transportation of BBR across MDCK-MDR1 cell monolayer
# Format: in vitro ADME, canine
# experimental-conditions: dog, MDCK-MDR1
Counter-ions that a name gives are not always drawn.
test-readout: Papp B→A at 10 μg/ml

Papp B→A at 10 μg/ml lookup needed for COc1ccc2cc3[n+](cc2c1OC)CCc1cc2c(cc1-3)OCO2 [BBR, Berberine hydrochloride] , thanks.
13.3 ×10⁻⁶ cm/s

====

# measurement-notes: Pharmacokinetics of oral BBR in mice (portal vein and liver)
# Assay type: in vivo, mice
# experimental-conditions: mouse, portal vein plasma, po, 200 mg/kg, portal vein; mice, oral BBR 200 mg/kg dissolved in water (Control); read-out: Cmax
Structures can show the parent of a compound that is named as a salt.
test-readout: Cmax (ng/mL)
Give the value, in units of ng/mL, as a plain number.

Cmax lookup needed for COc1ccc2cc3[n+](cc2c1OC)CCc1cc2c(cc1-3)OCO2 [BBR, Berberine hydrochloride] , thanks.
321

====

# measurement-notes: Pharmacokinetics of oral BBR in mice (portal vein and liver)
# Format: in vivo, mice
# experimental-conditions: mouse, portal vein plasma, po, 200 mg/kg, portal vein; mice, oral BBR 200 mg/kg in 10% NADES dilution; read-out: Cmax
Where a name gives a salt, the structure may show the parent alone.
test-readout: Cmax (ng/mL)
Give the value, in units of ng/mL, as a plain number.

Cmax lookup needed for COc1ccc2cc3[n+](cc2c1OC)CCc1cc2c(cc1-3)OCO2 [BBR, Berberine hydrochloride] , thanks.
1470

====

# measurement-notes: Pharmacokinetics of oral BBR in mice (portal vein and liver)
# Format: in vivo, mice
# experimental-conditions: mouse, liver, po, 200 mg/kg, livers; mice, oral BBR 200 mg/kg in malic acid solution 980 mg/kg
Where a name gives a salt, the structure may show the parent alone.
test-readout: MRT (h)
Give the value, in units of h, as a plain number.

MRT lookup needed for COc1ccc2cc3[n+](cc2c1OC)CCc1cc2c(cc1-3)OCO2 [BBR, Berberine hydrochloride] , thanks.
2.5

====

# measurement-notes: Pharmacokinetics of oral BBR in mice (portal vein and liver)
# Format: in vivo, mice
# experimental-conditions: mouse, portal vein plasma, po, 200 mg/kg, portal vein; mice, oral BBR 200 mg/kg dissolved in water (Control)
Counter-ions that a name gives are not always drawn.
test-readout: Tmax
Report the figure along with its unit, number first.

Tmax lookup needed for COc1ccc2cc3[n+](cc2c1OC)CCc1cc2c(cc1-3)OCO2 [BBR, Berberine hydrochloride] , thanks.
2 h

====

# measurement-notes: Pharmacokinetics of oral BBR in mice (portal vein and liver)
# Assay type: in vivo, mice
# experimental-conditions: mouse, portal vein plasma, po, 200 mg/kg, portal vein; mice, oral BBR 200 mg/kg dissolved in water (Control)
Where a name gives a salt, the structure may show the parent alone.
test-readout: MRT (h)
Give the value, in units of h, as a plain number.

MRT lookup needed for COc1ccc2cc3[n+](cc2c1OC)CCc1cc2c(cc1-3)OCO2 [BBR, Berberine hydrochloride] , thanks.
3.1
